- target.entity: ai5γ group II intron
- assay.summary: Radioanalytic self-splicing assay of SE RNA (Ki)
- condition.details: 8 mM MgCl2, 100 mM KCl, pH 7.5, 30° C.
parameter: Ki (µM)

Use these answered entries as a reference point.
| molecule | target.entity | Ki / µM |
| --- | --- | --- |
| O=C1/C(=C/c2cc(O)c(O)c(O)c2)Oc2cc(O)ccc21 [APY-013] | ai5γ group II intron | 16.5 |
| O=C1/C(=C/c2cc(F)c(O)c(F)c2)Oc2cc(O)cc(O)c21 [APY-010] | ai5γ group II intron | 140 |

P. O=C(N/N=C/c1ccc(O)cc1O)c1cc(O)c(O)c(O)c1 [APY-022]
Q. COc1cc(CCC(=O)c2cc(O)c(O)c(O)c2)cc(OC)c1OC [APY-069]
R. COc1cccc(/C=N/NC(=O)c2ccc(B(O)O)cc2)c1O [APY-018]
# rank by Ki, ascending (min first) Please list each label once, in the requested order.
P, Q, R

A. CCCCNS(=O)(=O)c1ccc(-c2ccc(-c3nc(-c4cc(O)c(O)c(O)c4)cs3)cc2)cc1 [APY-093]
B. COc1ccc(CCNC(=O)c2cc(O)c(O)c(O)c2)cc1OC [APY-078]
C. O=C(CCc1ccc2ccccc2c1)c1cc(O)c(O)c(O)c1 [APY-076]
D. O=C(c1cc(O)c(O)c(O)c1)c1cc2cc(Cl)cc(Cl)c2o1 [APY-083]
Please list these molecules in decreasing order of Ki. Please list each label once, in the requested order.
A, B, C, D
(A: 53 µM, B: 16 µM, C: 5.4 µM, D: 0.9 µM)
